Values from ChEMBL document CHEMBL3045648

Test system: K562
assay.name: Induction of apoptosis in Homo sapiens (human) K562 cells assessed as mitochondrial membrane depolarization at 10 uM after 48 hr by JC-1 staining based flow cytometric analysis (reference value: 6.1 +/- 0.9%)
Format: functional
recorded.metric: Activity (%)
Quick note: give the figure in %, leave out the unit.

Reference set, count: 4
INSERT INTO results (smiles_code, measurement_target, recorded_metric, unit_of_measurement, endpoint_result) VALUES
  ('Br.C=CCNC(=N)SCc1c(Br)c(Br)c(Br)c(Br)c1Br', 'K562', 'Activity', '%', 60),
  ('Br.N=C(N)SCc1c(Br)c(Br)c(Br)c(Br)c1Br', 'K562', 'Activity', '%', 63.8),
  ('Br.CNC(=N)SCc1c(Br)c(Br)c(Br)c(Br)c1Br', 'K562', 'Activity', '%', 81.8),
  ('Br.CCNC(=N)SCc1c(Br)c(Br)c(Br)c(Br)c1Br', 'K562', 'Activity', '%', 62.2);

Now look at this entry.
What Activity appears in the records for this compound with K562? `Br.C/N=C(/NC)SCc1c(Br)c(Br)c(Br)c(Br)c1Br`
77.7

---

Test system: HL-60
assay.name: Induction of apoptosis in Homo sapiens (human) HL60 cells assessed as mitochondrial membrane depolarization at 5 uM after 48 hr by JC-1 staining based flow cytometric analysis (reference value: 7.7 +/- 2.4%)
Format: functional
Property: Activity; scope: individual compounds
Quick note: give the figure in %, leave out the unit.

What Activity appears in the records for this compound with HL-60? `Br.N=C(N)SCc1c(Br)c(Br)c(Br)c(Br)c1Br`
21.9

Same question, `Br.CNC(=N)SCc1c(Br)c(Br)c(Br)c(Br)c1Br` this time
24.4

Same question, `Br.C=CCNC(=N)SCc1c(Br)c(Br)c(Br)c(Br)c1Br` this time
12.8

Same question, `Br.C/N=C(/NC)SCc1c(Br)c(Br)c(Br)c(Br)c1Br` this time
93.1

Same question, `Br.CCNC(=N)SCc1c(Br)c(Br)c(Br)c(Br)c1Br` this time
30.1
